- TEST_TARGET: DR1 (DRB1*0101) (Homo sapiens, UniProt P01903+P01911, A100R/D57E/F55L/F60I/F76Y/I96L/L162R/M171V/P40L/Q125E/R42F/V115G/Y59C)
- METHOD_DESCRIPTION: biochemical
- Assay type: binding
No end group written: not given here.
MEASURED_QUANTITY: pIC50
Note: pIC50 values are expressed as the negative base-10 logarithm of concentration in M.

So, FKKFLKGIPKKSCML [Peptide 89.0073] ? Its pIC50 was 7.70

So, DSVDSVNCGVISAAA [Peptide 1601.24] ? Its pIC50 was 6.04

So, ACSWGMVVLLLVRYK [Peptide 89.0004] ? Its pIC50 was 5.99

So, FQVIELQMALETLSK [Peptide 89.0182] ? Its pIC50 was 6.00

So, TGWFEVEAVIERRTG [Peptide 90.0075] ? Its pIC50 was 4.77

So, ETELVEPLAPSGAMP [Peptide 9014.0149] ? Its pIC50 was 7.35

So, ESDMAFQYAQLADCN [Peptide 89.0085] ? Its pIC50 was 7.96

So, IHFIQGAVISFVNST [Peptide 89.0037] ? Its pIC50 was 7.51

So, LNTVKIPNTVSVSTG [Peptide 89.0178] ? Its pIC50 was 7.29

So, SEVYDFVFADLRIVY [Peptide 1543.48] ? Its pIC50 was 6.39

So, ETCMVIEPPKLRSQT [Peptide 90.0083] ? Its pIC50 was 7.59

So, STSDDTVSATQIVRQ [Peptide 1601.31] ? Its pIC50 was 4.74

So, RYRFQKYKTLFVDVT [Peptide 90.0019] ? Its pIC50 was 7.13

So, IYIIEEDTCTMVTGK [Peptide 90.0204] ? Its pIC50 was 5.65

So, PPLLITTNINPMLDA [Peptide 89.0139] ? Its pIC50 was 5.91

----------
- TEST_TARGET: A*3301 (Homo sapiens, UniProt P04439, A270S/D185E/E176V/E277Q/E87N/F33T/G231S/H175R/I121M/I218V/I322F/K168Q/K210R/L300P/L318F/M331R/P217A/Q86R/Q94H/R138Q/T323A/T345S/T97I/V358M/Y195H)
- METHOD_DESCRIPTION: biochemical
- Assay type: binding
No end group written: not given here.
Give log10 of IC50 for every item shown.
Use the decimal logarithm of IC50 (nM).

So, VTVYYGVPVWR [Peptide 1525.01] ? Its log10 of IC50 was 2.71

So, VVFGILIKRK [Peptide 9012.0246] ? Its log10 of IC50 was 4.00

So, DSNAQAFLK [Peptide 88.0379] ? Its log10 of IC50 was 1.30

So, KQIVMFLRY [Peptide 88.0330] ? Its log10 of IC50 was 3.81

So, MLVRFKCAK [Peptide 1587.30] ? Its log10 of IC50 was 2.99

So, ATCALYWYR [Peptide 88.0371] ? Its log10 of IC50 was 1.18

So, QQLLFIHFR [Peptide 9017.0111] ? Its log10 of IC50 was 1.61

So, WTIVYIEYR [Peptide 9017.0117] ? Its log10 of IC50 was 1.96

----------
Give IC50 for every item shown.
- TEST_TARGET: DRB3*0101 (Homo sapiens, UniProt P01903+P79483)
- METHOD_DESCRIPTION: biochemical
- Type: binding
No end group written: not given here.

Param item: GCWRQTSREPRESTV [Peptide 1543.46] ; param system: DRB3*0101 (Homo sapiens, UniProt P01903+P79483); output IC50: > 20 µM

Param item: SNEVSSPEIIRQHLA [Peptide 1601.06] ; param system: DRB3*0101 (Homo sapiens, UniProt P01903+P79483); output IC50: > 20 µM

Param item: PHPLYNMSLLKHQSL [Peptide 68.0007] ; param system: DRB3*0101 (Homo sapiens, UniProt P01903+P79483); output IC50: > 20 µM

Param item: PDGQAEQATSNYYIV [Peptide 1543.43] ; param system: DRB3*0101 (Homo sapiens, UniProt P01903+P79483); output IC50: > 20 µM

Param item: LDHYENDSKDINSQI [Peptide 1601.29] ; param system: DRB3*0101 (Homo sapiens, UniProt P01903+P79483); output IC50: 2.05 µM

Param item: RREVYDFAFRDLCIV [Peptide 1543.25] ; param system: DRB3*0101 (Homo sapiens, UniProt P01903+P79483); output IC50: > 20 µM

Param item: QIQVFETLEET [Peptide 1385.01] ; param system: DRB3*0101 (Homo sapiens, UniProt P01903+P79483); output IC50: > 20 µM

Param item: ADKIYSISMKHPQEM [Peptide 68.0125] ; param system: DRB3*0101 (Homo sapiens, UniProt P01903+P79483); output IC50: > 20 µM

Param item: GRAVCGGVLVHPQWV [Peptide 68.0062] ; param system: DRB3*0101 (Homo sapiens, UniProt P01903+P79483); output IC50: > 20 µM

Param item: TYISTSQRDDFLNTV [Peptide 1601.27] ; param system: DRB3*0101 (Homo sapiens, UniProt P01903+P79483); output IC50: 6.62 µM

Param item: GNEIFNTSLFEPPPP [Peptide 68.0090] ; param system: DRB3*0101 (Homo sapiens, UniProt P01903+P79483); output IC50: > 20 µM

Param item: KSRLQGGVLVNEILN [Peptide 68.0046] ; param system: DRB3*0101 (Homo sapiens, UniProt P01903+P79483); output IC50: > 20 µM

Param item: VVTIPNSVQISVGYM [Peptide 1601.41] ; param system: DRB3*0101 (Homo sapiens, UniProt P01903+P79483); output IC50: > 20 µM

Param item: NTTPIIHLKGDKNSL [Peptide 1601.37] ; param system: DRB3*0101 (Homo sapiens, UniProt P01903+P79483); output IC50: > 20 µM

Param item: VILLGRHSLFHPEDT [Peptide 68.0068] ; param system: DRB3*0101 (Homo sapiens, UniProt P01903+P79483); output IC50: > 20 µM

Param item: LSQRLNVCQDKILEH [Peptide 1601.21] ; param system: DRB3*0101 (Homo sapiens, UniProt P01903+P79483); output IC50: > 20 µM

Param item: GVNHQHLPARRAEPQ [Peptide 1543.05] ; param system: DRB3*0101 (Homo sapiens, UniProt P01903+P79483); output IC50: > 20 µM

Param item: TNKFSGYPLYHSVYE [Peptide 68.0116] ; param system: DRB3*0101 (Homo sapiens, UniProt P01903+P79483); output IC50: > 20 µM

Param item: AATYNFAVLKLMGRGTKF [Peptide F025.08] ; param system: DRB3*0101 (Homo sapiens, UniProt P01903+P79483); output IC50: > 20 µM

Param item: KERHVNANKRFHNIM [Peptide 1543.59] ; param system: DRB3*0101 (Homo sapiens, UniProt P01903+P79483); output IC50: > 20 µM

Param item: EYILDLHPEPTDLFC [Peptide 1543.51] ; param system: DRB3*0101 (Homo sapiens, UniProt P01903+P79483); output IC50: 0.083 µM

Param item: RFHNIMGRWTGRCSE [Peptide 1543.60] ; param system: DRB3*0101 (Homo sapiens, UniProt P01903+P79483); output IC50: 7.84 µM

Param item: RNTFLDVVTIPNSVQ [Peptide 1601.39] ; param system: DRB3*0101 (Homo sapiens, UniProt P01903+P79483); output IC50: 12 µM

Param item: RVPVSHSFPHPLYNM [Peptide 68.0006] ; param system: DRB3*0101 (Homo sapiens, UniProt P01903+P79483); output IC50: > 20 µM

----------
- TEST_TARGET: DRB1*0802 (Homo sapiens, UniProt P01903+P01911, A100R/A103L/A169T/F76Y/H45Y/I96F/K41T/L162R/M171V/P40S/Q125H/Q178H/Q39Y/Q99D/R218S/R42G/S66Y/V115G/W38E)
- METHOD_DESCRIPTION: biochemical
- Type: binding
No end group written: not given here.
Give IC50 for every item shown.

So, LIKFFQGSVISFVNS [Peptide 89.0135] ? Its IC50 was 7.98 µM

So, PTGCLKKHGYTVEVQ [Peptide 1601.23] ? Its IC50 was > 20 µM

So, EVQIALESLSTTIYN [Peptide 90.0231] ? Its IC50 was > 20 µM

So, GNEIFNTSLFEPPPP [Peptide 68.0090] ? Its IC50 was > 20 µM

So, QQTVCREGVKRRLIL [Peptide 90.0129] ? Its IC50 was 3.74 µM

So, GVYYIKDGDTTYYVQ [Peptide 90.0216] ? Its IC50 was 5.62 µM

So, AFQVIELQMALETLN [Peptide 90.0024] ? Its IC50 was 4.95 µM

So, ENSIQADTEAARALF [Peptide 90.0078] ? Its IC50 was > 20 µM

So, LVQIKCPPLLITTNI [Peptide 89.0138] ? Its IC50 was > 20 µM

So, QAELETAQALFHAQE [Peptide 89.0022] ? Its IC50 was > 20 µM

So, TYISTSQRDDFLNTV [Peptide 1601.27] ? Its IC50 was > 20 µM

So, NCNSNTTPIVHLKGD [Peptide 1601.08] ? Its IC50 was > 20 µM

So, IIHLKGDKNSLKCLR [90,0218] ? Its IC50 was 5.03 µM

So, KSRLQGGVLVNEILN [Peptide 68.0046] ? Its IC50 was > 20 µM

So, FQVIELQMALETLSK [Peptide 89.0182] ? Its IC50 was > 20 µM

So, ESDMAFQYAQLADCN [Peptide 89.0085] ? Its IC50 was 5.92 µM

Every entry's value here was drawn from patent US9340577B2.
